Here the recorded IC50 is given for each entry.
Target: Muscarinic acetylcholine receptor M3 (Homo sapiens)
Sequence (P20309 whole entry): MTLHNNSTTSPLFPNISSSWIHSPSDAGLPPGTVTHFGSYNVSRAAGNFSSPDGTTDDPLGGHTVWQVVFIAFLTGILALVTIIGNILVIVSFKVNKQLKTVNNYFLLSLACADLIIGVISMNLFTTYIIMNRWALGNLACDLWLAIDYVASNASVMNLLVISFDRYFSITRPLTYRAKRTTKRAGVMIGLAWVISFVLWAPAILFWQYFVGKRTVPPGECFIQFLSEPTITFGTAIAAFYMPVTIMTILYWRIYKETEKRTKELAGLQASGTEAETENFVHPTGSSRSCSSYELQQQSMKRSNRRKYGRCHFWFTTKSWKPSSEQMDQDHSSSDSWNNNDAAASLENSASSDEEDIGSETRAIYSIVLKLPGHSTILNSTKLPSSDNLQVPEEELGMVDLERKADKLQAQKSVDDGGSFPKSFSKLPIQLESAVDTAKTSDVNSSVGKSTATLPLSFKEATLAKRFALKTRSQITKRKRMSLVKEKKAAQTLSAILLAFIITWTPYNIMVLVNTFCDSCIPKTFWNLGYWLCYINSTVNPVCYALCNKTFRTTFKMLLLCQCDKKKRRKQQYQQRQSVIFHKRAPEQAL
Measurement protocol: Antagonist activity at cloned muscarinic M3 receptor expressed in CHO cells by measuring calcium mobilization

Smiles str | Units of measure | IC50
C[N+]1(C)[C@@H]2CC[C@H]1C[C@H](OC(=O)N(Cc1ccc(Br)cc1)c1ccccc1)C2 | nM | 56.6
CN1[C@@H]2CC[C@H]1C[C@H](OC(=O)N(Cc1ccoc1)c1ccccc1)C2 | nM | 57.3
CN1[C@@H]2CC[C@H]1C[C@H](OC(=O)N(Cc1ccccc1)c1cccs1)C2 | nM | 22.9
CN1[C@@H]2CC[C@H]1C[C@@H](OC(=O)N(Cc1ccsc1)c1ccccc1)C2 | nM | 27.5
CN1[C@@H]2CC[C@H]1C[C@H](OC(=O)N(Cc1ccc(Br)cc1)c1ccccc1)C2 | nM | 721
CN1[C@@H]2CC[C@H]1C[C@@H](OC(=O)N(Cc1ccc(C#N)cc1)c1ccsc1)C2 | nM | 137
C[N+]1(C)[C@@H]2CC[C@H]1C[C@H](OC(=O)N(CC1CCCCC1)c1ccsc1)C2 | nM | 11.3
Cc1ccoc1CN(C(=O)O[C@H]1C[C@H]2CC[C@@H](C1)[N+]2(C)C)c1ccccc1 | nM | 42.3
C[N+]1(C)[C@@H]2CC[C@H]1C[C@@H](OC(=O)N(Cc1ccc(C#N)cc1)c1ccccc1)C2 | nM | 714
C[N+]1(C)[C@@H]2CC[C@H]1C[C@H](OC(=O)N(Cc1ccccc1)c1ccsc1)C2.[Br-] | nM | 2
C[N+]1(C)[C@@H]2CC[C@H]1C[C@@H](OC(=O)N(Cc1ccsc1)c1ccccc1)C2.[Br-] | nM | 2.8
C[N+]1(C)[C@@H]2CC[C@H]1C[C@H](OC(=O)N(Cc1cccs1)c1ccccc1)C2.[Br-] | nM | 2.3
Cc1ccc(CN(C(=O)O[C@@H]2C[C@H]3CC[C@@H](C2)[N+]3(C)C)c2ccccc2)s1 | nM | 21.2
CN1[C@@H]2CC[C@H]1C[C@@H](OC(=O)N(Cc1ccc(C#N)cc1)c1ccccc1)C2 | nM | 1160
Cc1ccc(CN(C(=O)O[C@@H]2C[C@H]3CC[C@@H](C2)N3C)c2ccccc2)s1 | nM | 262
C[N+]1(C)[C@@H]2CC[C@H]1C[C@@H](OC(=O)N(Cc1ccsc1)c1ccsc1)C2.[Br-] | nM | 1
C[N+]1(C)[C@@H]2CC[C@H]1C[C@@H](OC(=O)N(Cc1cccc(C#N)c1)c1ccsc1)C2 | nM | 137
